- Test system: HL-60
- experiment: Induction of cell differentiation in human HL60 cells assessed as superoxide anion production after 4 days by NBT reduction assay
- Type: functional, cell-based
- experimental conditions: HL-60, 96 h
Consider the following compounds and their measured EC50 readings.
measured parameter: EC50 (nM)

compound=CC1=CC(=O)[C@@H](O)[C@]2(C)[C@H]3[C@]4(O)OC[C@]35[C@H]([C@@H](C)[C@H]4O)[C@@H](OC(=O)CC(O)(CC(C)C)CC(C)C)C(=O)O[C@@H]5C[C@@H]12 measurement_target=HL-60 units=nM comparison_symbol=> recorded_measurement=50
compound=CC1=CC(=O)[C@@H](O)[C@]2(C)[C@H]3[C@]4(O)OC[C@]35[C@H]([C@@H](C)[C@H]4O)[C@@H](OC(=O)C=C(C3CC3)C3CC3)C(=O)O[C@@H]5C[C@@H]12 measurement_target=HL-60 units=nM comparison_symbol== recorded_measurement=600
compound="CC[C@@H](C)C(=O)O[C@H]1C(=O)O[C@@H]2C[C@H]3C(C)=CC(=O)[C@@H](O)[C@]3(C)[C@H]3[C@@H](O)[C@H](O)[C@]4(C)OC[C@]32[C@@H]14 [SIMALIKALACTONE D]" measurement_target=HL-60 units=nM comparison_symbol=> recorded_measurement=200
compound=CC1=CC(=O)[C@@H](O)[C@]2(C)[C@H]3[C@]4(O)OC[C@]35[C@H]([C@@H](C)[C@H]4O)[C@@H](OC(=O)C(C)(C)CO)C(=O)O[C@@H]5C[C@@H]12 measurement_target=HL-60 units=nM comparison_symbol== recorded_measurement=500
compound="CC[C@](C)(O)C(=O)O[C@H]1C(=O)O[C@@H]2C[C@H]3C(C)=CC(=O)[C@@H](O)[C@]3(C)[C@H]3C4(O)OC[C@]32[C@@H]1[C@@H](C)[C@H]4O (single isomer, unassigned) [GLAUCARUBINONE]" measurement_target=HL-60 units=nM comparison_symbol== recorded_measurement=1800
compound=CCC(CC)(CO)C(=O)O[C@H]1C(=O)O[C@@H]2C[C@H]3C(C)=CC(=O)[C@@H](O)[C@]3(C)[C@H]3[C@]4(O)OC[C@]32[C@@H]1[C@@H](C)[C@H]4O measurement_target=HL-60 units=nM comparison_symbol== recorded_measurement=500
compound="CC[C@](C)(OC(C)=O)C(=O)O[C@H]1C(=O)O[C@@H]2C[C@H]3C(C)=CC(=O)[C@@H](O)[C@]3(C)[C@H]3[C@@H](O)[C@H](O)[C@@]4(C)OC[C@]32[C@@H]14 [QUASSIMARIN]" measurement_target=HL-60 units=nM comparison_symbol== recorded_measurement=90
compound=CC1=CC(=O)[C@@H](O)[C@]2(C)[C@H]3[C@]4(O)OC[C@]35[C@H]([C@@H](C)[C@H]4O)[C@@H](OC(=O)[C@@H](C)CO)C(=O)O[C@@H]5C[C@@H]12 measurement_target=HL-60 units=nM comparison_symbol== recorded_measurement=1900
compound=CC[C@@](O)(CC(=O)O[C@H]1C(=O)O[C@@H]2C[C@H]3C(C)=CC(=O)[C@@H](O)[C@]3(C)[C@H]3[C@]4(O)OC[C@]32[C@@H]1[C@@H](C)[C@H]4O)C(C)C measurement_target=HL-60 units=nM comparison_symbol== recorded_measurement=17
